Reference for the values: patent US20220169728A1

# measurement-target: T1, CD55 (UniProt P08174 35-353, limits assumed)
# T1 construct: whole, on cells; also called CD55 on Rituximab resistant Raji cells (RRCL)
# T1 sequence (looked up): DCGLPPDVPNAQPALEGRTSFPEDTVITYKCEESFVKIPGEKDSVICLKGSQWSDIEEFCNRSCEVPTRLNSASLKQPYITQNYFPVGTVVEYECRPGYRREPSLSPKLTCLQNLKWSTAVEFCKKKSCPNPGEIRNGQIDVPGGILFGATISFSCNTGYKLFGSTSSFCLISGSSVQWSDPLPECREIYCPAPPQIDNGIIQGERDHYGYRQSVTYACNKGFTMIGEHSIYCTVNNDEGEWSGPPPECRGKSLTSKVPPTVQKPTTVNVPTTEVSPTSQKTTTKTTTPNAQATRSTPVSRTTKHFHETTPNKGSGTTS
# assay-explanation: binding at 5 µg/ml against the unmutated antibody (SEQ ID NO: 14 + 15); format not stated
readout: Function remaining percentage (5 µg/ml) (%)
Please state the figure in %; there is no need to write the unit.

The examples below pair each entry with its known result.
- anti-CD55 antibody with CD55VH (SEQ ID NO: 14) N52V and VL (SEQ ID NO: 15) (antibody, V domains shown, also called Test 5) VH: QVKLQESGGGLVQPGGSLKLSCAASGFTFSGYGMSWIRQTPDKRLEWVATIVSGGSYTYYSDSVKGRFTISRDNVKNTLYLQMSSLKSEDTAMYYCARRNGTLYYYLMDYWGRGTLVTVSS VL: QSVLTQPPSASGSPGQSVTISCTGTSSDVGGYNYVSWYQQHPGKAPKFMIYDVSKRPSGVSNRFSGSKSGNTASLTISGVQAEDEADYYCSSYTSASTVIFGGGTKLTVL: 21
- anti-CD55 antibody with CD55VH (SEQ ID NO: 14) N100T and VL (SEQ ID NO: 15) (antibody, V domains shown, also called Test 14) VH: QVKLQESGGGLVQPGGSLKLSCAASGFTFSGYGMSWIRQTPDKRLEWVATINSGGSYTYYSDSVKGRFTISRDNVKNTLYLQMSSLKSEDTAMYYCARRTGTLYYYLMDYWGRGTLVTVSS VL: QSVLTQPPSASGSPGQSVTISCTGTSSDVGGYNYVSWYQQHPGKAPKFMIYDVSKRPSGVSNRFSGSKSGNTASLTISGVQAEDEADYYCSSYTSASTVIFGGGTKLTVL: 96
- anti-CD55 antibody with CD55VH (SEQ ID NO: 14) N100K and VL (SEQ ID NO: 15) (antibody, V domains shown, also called Test 13) VH: QVKLQESGGGLVQPGGSLKLSCAASGFTFSGYGMSWIRQTPDKRLEWVATINSGGSYTYYSDSVKGRFTISRDNVKNTLYLQMSSLKSEDTAMYYCARRKGTLYYYLMDYWGRGTLVTVSS VL: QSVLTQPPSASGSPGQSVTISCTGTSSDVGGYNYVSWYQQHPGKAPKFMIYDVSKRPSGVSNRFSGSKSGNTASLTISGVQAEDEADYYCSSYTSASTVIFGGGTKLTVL: 106
- anti-CD55 antibody with CD55VH (SEQ ID NO: 14) N100M and VL (SEQ ID NO: 15) (antibody, V domains shown, also called Test 19) VH: QVKLQESGGGLVQPGGSLKLSCAASGFTFSGYGMSWIRQTPDKRLEWVATINSGGSYTYYSDSVKGRFTISRDNVKNTLYLQMSSLKSEDTAMYYCARRMGTLYYYLMDYWGRGTLVTVSS VL: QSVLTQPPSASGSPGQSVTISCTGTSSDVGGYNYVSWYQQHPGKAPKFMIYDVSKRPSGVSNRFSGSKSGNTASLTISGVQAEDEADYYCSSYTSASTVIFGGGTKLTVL: 86
- anti-CD55 antibody with CD55VH (SEQ ID NO: 14) N100I and VL (SEQ ID NO: 15) (antibody, V domains shown, also called Test 23) VH: QVKLQESGGGLVQPGGSLKLSCAASGFTFSGYGMSWIRQTPDKRLEWVATINSGGSYTYYSDSVKGRFTISRDNVKNTLYLQMSSLKSEDTAMYYCARRIGTLYYYLMDYWGRGTLVTVSS VL: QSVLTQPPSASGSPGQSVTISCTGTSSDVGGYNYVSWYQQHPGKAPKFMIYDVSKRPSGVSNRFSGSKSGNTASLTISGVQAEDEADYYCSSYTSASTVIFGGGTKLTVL: 62
- anti-CD55 antibody with CD55VH (SEQ ID NO: 14) T102G and VL (SEQ ID NO: 15) (antibody, V domains shown, also called Test 27) VH: QVKLQESGGGLVQPGGSLKLSCAASGFTFSGYGMSWIRQTPDKRLEWVATINSGGSYTYYSDSVKGRFTISRDNVKNTLYLQMSSLKSEDTAMYYCARRNGGLYYYLMDYWGRGTLVTVSS VL: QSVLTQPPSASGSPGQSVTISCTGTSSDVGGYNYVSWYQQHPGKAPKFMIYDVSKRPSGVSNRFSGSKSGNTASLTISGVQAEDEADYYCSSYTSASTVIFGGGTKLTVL: 17
- anti-CD55 antibody with CD55VH (SEQ ID NO: 14) N100A and VL (SEQ ID NO: 15) (antibody, V domains shown, also called Test 20) VH: QVKLQESGGGLVQPGGSLKLSCAASGFTFSGYGMSWIRQTPDKRLEWVATINSGGSYTYYSDSVKGRFTISRDNVKNTLYLQMSSLKSEDTAMYYCARRAGTLYYYLMDYWGRGTLVTVSS VL: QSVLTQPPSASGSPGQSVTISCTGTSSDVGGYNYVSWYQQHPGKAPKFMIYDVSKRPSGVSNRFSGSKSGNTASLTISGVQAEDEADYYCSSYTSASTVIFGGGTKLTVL: 83
- anti-CD55 antibody with CD55VH (SEQ ID NO: 14) N52W and VL (SEQ ID NO: 15) (antibody, V domains shown, also called Test 7) VH: QVKLQESGGGLVQPGGSLKLSCAASGFTFSGYGMSWIRQTPDKRLEWVATIWSGGSYTYYSDSVKGRFTISRDNVKNTLYLQMSSLKSEDTAMYYCARRNGTLYYYLMDYWGRGTLVTVSS VL: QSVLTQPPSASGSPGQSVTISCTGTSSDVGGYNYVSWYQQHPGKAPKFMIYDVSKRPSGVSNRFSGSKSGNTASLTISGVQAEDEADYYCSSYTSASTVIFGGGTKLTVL: 17
- anti-CD55 antibody with CD55VH (SEQ ID NO: 14) N100F and VL (SEQ ID NO: 15) (antibody, V domains shown, also called Test 18) VH: QVKLQESGGGLVQPGGSLKLSCAASGFTFSGYGMSWIRQTPDKRLEWVATINSGGSYTYYSDSVKGRFTISRDNVKNTLYLQMSSLKSEDTAMYYCARRFGTLYYYLMDYWGRGTLVTVSS VL: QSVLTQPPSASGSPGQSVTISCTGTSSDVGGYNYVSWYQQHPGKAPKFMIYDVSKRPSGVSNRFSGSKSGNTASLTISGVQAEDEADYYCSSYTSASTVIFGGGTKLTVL: 86

Note: attention shifts to another entry.
Given anti-CD55 antibody with CD55VH (SEQ ID NO: 14) N52M and VL (SEQ ID NO: 15) (antibody, V domains shown, also called Test 8) VH: QVKLQESGGGLVQPGGSLKLSCAASGFTFSGYGMSWIRQTPDKRLEWVATIMSGGSYTYYSDSVKGRFTISRDNVKNTLYLQMSSLKSEDTAMYYCARRNGTLYYYLMDYWGRGTLVTVSS VL: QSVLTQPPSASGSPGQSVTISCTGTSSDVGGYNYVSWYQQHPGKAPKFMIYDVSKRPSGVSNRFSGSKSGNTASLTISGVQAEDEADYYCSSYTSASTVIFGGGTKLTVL , state its recorded Function remaining percentage (5 µg/ml).
16
